test: S6 kinase pathway phospho-S6 level changes – cell-based, A549, cytoblot, luminescence, serum-stimulated, primary screen (AID 1158); settings: 5 h, higher = more signal;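 further: serum-stimulated A549 lung adenocarcinoma cells; signal is phosphorylated S6 detected by cytoblot immunostaining with HRP secondary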
Can you tell me z-score for the items I'm about to list?
Give bare numbers.

These solved cases illustrate the format of a correct answer.
compound	z-score
[N-]=[N+]=Nc1ccccc1[C@@H]1OC(c2ccc(OCCCO)cc2)=N[C@]1(Cc1ccccc1)C(=O)O	-0.465
COCCOC(=O)N1C(=O)[C@@]2(c3cc(C#CCCO)ccc31)[C@H](C(=O)Nc1nc3ccccc3s1)[C@H]1C(=O)O[C@H](c3ccccc3)[C@H](c3ccccc3)N1[C@@H]2c1ccc(O)cc1	0.0869
CC1=C2[C@@H](CCc3ccccc3)OB(O)C[C@@H]2[C@@H]2C(=O)N(C)C(=O)[C@@H]2C1	-0.391
C=CCC(OC(C)=O)[C@@H]1[C@@H](N(Cc2cccc3ccccc23)C(=O)Cc2ccc(OC)cc2)c2cc(OCCCO)ccc2N1C(=O)c1ccc(-c2ccccc2)cc1 (stereo partly drawn)	0.0614
CCCC#C[Si](O[C@H](CC)c1cn([C@H](C)c2ccccc2)nn1)(C(C)C)C(C)C	0.364
O=C(O)[C@@H]1[C@@H]2C(=O)N(c3ccccc3)C(=O)[C@@H]2C[C@@H]1Sc1ccccc1	-0.381

# per-item lookup of z-score; items listed below
1. C=CCOC(=O)[C@@H]1[C@H]2C(=O)O[C@H](c3ccccc3)[C@H](c3ccccc3)N2[C@H](c2ccc(OCCOC(=O)[C@@H]3C[C@@H]4C(=O)N[C@@H](CCCC[N+](C)(C)C)C(=O)N4[C@@H]3c3ccc(O)cc3)cc2)[C@@]12C(=O)Nc1ccc(I)cc12
2. NC(=O)[C@@]1(Cc2ccccc2)COC(c2ccc(OCCCO)cc2)=N1

Result block:
[-1.27, -0.468]

# per-item lookup of z-score; items listed below
1. NC(=O)NCC#Cc1ccc2c(c1)[C@]1(C(=O)N2)[C@H](c2ccccc2OCCO)N2[C@H](c3ccccc3)[C@H](c3ccccc3)OC(=O)[C@H]2[C@@H]1C(=O)NC[C@H](O)c1ccccc1
2. CC(C)C[C@@H]1NC(=O)[C@@H]2C[C@H](C(=O)NCCCCCCN)[C@H](c3cccc(OCCO)c3)N2C1=O
3. C=CC[C@@]1(C(=O)NCCCOC)N=C(c2ccc(OCCCO)cc2)O[C@@H]1c1ccccc1N=[N+]=[N-]
4. COC(=O)c1c(CC[C@@H](CO)NC(=O)N2CCC[C@H]2Cn2cc(C3(O)CCCCC3)nn2)oc(C(C)=O)c1C(=O)OC

Result block:
1: 2.83; 2: -0.256; 3: -0.217; 4: -0.0302

Query block: Given the compound COc1ccc([Si](C)(C)[C@H]2[C@H](CC(=O)N3Cc4ccccc4C[C@H]3CO)O[C@@]3(C(=O)N(Cc4ccc(N5CCOC5=O)cc4)c4ccccc43)[C@@H]2C)cc1 , write its reported z-score.
Result block: 0.718

---

test system: Wnt5a (protein binding on small-molecule microarray); assay: small molecules binding Wnt5a protein – biophysical, small-molecule microarray, 635/667 nm fluorescence, primary screen (AID 1142); details: 635 nm fluorescence, higher = more signal;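 further: fluorescence read at 667 nm with signal to noise per printed feature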
Can you tell me composite z-score for the items I'm about to list?

These solved cases illustrate the format of a correct answer.
molecule	tested.system	result.value
O=C1C2C=CC(C(O)C3CC=CCC3)N(Nc3ccccc3)C2C(=O)N1c1ccccc1 (configuration not stated)	Wnt5a (protein binding on small-molecule microarray)	-0.0727
CC(C)NC(=O)[C@@]1(c2ccc([N+](=O)[O-])cc2)CC(=O)N(C2CCCCC2)[C@@H]1c1ccc(CO)cc1	Wnt5a (protein binding on small-molecule microarray)	0.34
COC(=O)C1=CC(CCCO)=CC(c2cccs2)N(C)C=C1C(=O)OC (configuration not stated)	Wnt5a (protein binding on small-molecule microarray)	-0.149
CO[C@H]1O[C@H](CO)[C@@H](OC(=O)Nc2ccc(Br)cc2)[C@@H]2OC(=O)[C@@H](Cc3ccccc3)C/C=C/C[C@H](Cc3ccccc3)C(=O)O[C@@H]12	Wnt5a (protein binding on small-molecule microarray)	0.891
CCOC(=O)C=Cc1cccc(C)c1O	Wnt5a (protein binding on small-molecule microarray)	-0.0909

# per-item lookup of composite z-score; items listed below
1. COC(=O)[C@@H]1N=C(c2ccc(OCCCO)cc2)O[C@@H]1C
2. CCCCCCCCCCC(O)C1C=CC2C(=O)N(c3ccccc3)C(=O)C2N1Nc1ccc(C#N)cc1 (configuration not stated)

Result block:
1: 0.186; 2: 0.525

---

Can you tell me composite z-score for the items I'm about to list?
target: Follistatin (Homo sapiens) (UniProt P19883); experiment: FST protein binding to printed compounds – biochemical, small-molecule microarray, 635/667 nm fluorescence, primary screen (AID 1132); details: 635 nm fluorescence, higher = more signal
Sequence (P19883 whole entry, looked up): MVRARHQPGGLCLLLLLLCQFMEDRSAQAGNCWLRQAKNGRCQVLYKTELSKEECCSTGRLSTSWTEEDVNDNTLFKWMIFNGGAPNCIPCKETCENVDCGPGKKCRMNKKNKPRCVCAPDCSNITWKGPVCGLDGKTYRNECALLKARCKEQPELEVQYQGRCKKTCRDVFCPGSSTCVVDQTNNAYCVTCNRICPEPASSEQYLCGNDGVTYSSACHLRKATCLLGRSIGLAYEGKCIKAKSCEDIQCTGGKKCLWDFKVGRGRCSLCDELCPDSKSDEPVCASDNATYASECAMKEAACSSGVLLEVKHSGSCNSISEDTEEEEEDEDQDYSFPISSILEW
Answers are plain numbers.

# per-item lookup of composite z-score; items listed below
1. C=CCN1Cc2ccccc2[C@@H]2OC(c3ccc(OCCCO)cc3)=N[C@]2(CC=C)C1=O
2. CCOC(=O)C[C@H]1[C@H](OC(=O)c2ccc(C(=O)c3ccccc3)cc2)[C@@H](NC(=O)c2ccc3ccccc3n2)c2cc(OCCCO)ccc2N1C(=O)Cc1ccc(OC)cc1
3. Cc1ccccc1C(O)C1C=CC2C(=O)NC(=O)C2N1Nc1ccccn1 (stereo unspecified)
4. C=CCN1C(=O)[C@]2(CCC(=O)OC(C)(C)C)N=C(c3ccc(OCCCO)cc3)O[C@@H]2c2ccccc21
5. CCOC(=O)C1=C[C@@H](C(C)C)N(S(=O)(=O)c2ccc(C)cc2)[C@H]1c1ccc(C(F)(F)F)cc1
6. CCCC=C(CCC)[C@@H](NS(=O)(=O)c1ccc(C(F)(F)F)cc1)c1ccccc1

Result block:
[1.49, 0.259, -0.145, 1.19, 0.929, 0.225]

# per-item lookup of composite z-score; items listed below
1. CCCC#C[Si](O[C@H](CC)c1cn([C@H](C)c2ccccc2)nn1)(C(C)C)C(C)C
2. COc1ccc(CCNC(=O)[C@@]2(c3ccc([N+](=O)[O-])cc3)CC(=O)N(C3CCCCC3)[C@@H]2c2ccc(CO)cc2)cc1

Result block:
[0.297, 0.695]

---

test: blockers of DNA damage checkpoint Chk1 activation – imaging, HeLa, hydroxyurea, phospho-Chk1 nuclear intensity, primary screen (AID 1187); conditions: hydroxyurea-induced phospho-Chk1 immunofluorescence imaging, higher = more signal; further: test concentration not given here
measured.quantity: z-score
Answers are plain numbers.

These solved cases illustrate the format of a correct answer.
                                 mol_smiles  result_value
0         CCOC(=O)[C@@H]1CCCCN1C(=O)C(=O)OC       -0.0933
1  COC(=O)[C@@]1(Cc2ccc(F)cc2)[C@H]2c3cc(C(=O)N(C)C)n(Cc4ccc(OC(F)(F)F)cc4)c3C[C@H]2CN1C(=O)c1ccccc1         0.579
2  CC(C)[Si](C#CCCCC#N)(O[C@H](c1ccccc1)c1cn(Cc2ccccc2)nn1)C(C)C         -0.29

Query block: Given the molecule CC(C)N1C(=O)C[C@@](C(=O)NC2CC2)(c2ccc([N+](=O)[O-])cc2)[C@H]1c1ccc(CO)cc1 , write its reported z-score.
Result block: 0.529

---

molecular target: Calmodulin-1 (Homo sapiens); assay: small molecules binding calmodulin-1 with EGTA – biochemical, small-molecule microarray, Cy5-labelled CALM1, profiling panel (AID 1111); settings: Cy5-CALM1 binding fluorescence, higher = more signal;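 further: labelled calmodulin applied in Tris saline Tween buffer holding calcium plus EGTA and DTT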
Decision: composite z-score compared against 0.3; not below it gives yes (1), below it gives no (0).

compound	tested.system	assigned.class
C=CCC(OC(C)=O)[C@@H]1[C@@H](N(Cc2cccc3ccccc23)C(=O)Cc2ccc(F)cc2)c2cc(OCCCO)ccc2N1C(=O)c1ccc2ccccc2c1 (some centres undefined)	Calmodulin-1 (Homo sapiens)	no (0)
C=CCNC(=O)[C@H]1[C@@H]2C(=O)O[C@@H](c3ccccc3)[C@@H](c3ccccc3)N2[C@@H](c2ccccc2OCCO)[C@]12C(=O)N(C(=O)OCCOC)c1ccc(C#CC3(O)CCCCCC3)cc12	Calmodulin-1 (Homo sapiens)	yes (1)
[N-]=[N+]=NCc1ccccc1[C@@H]1OC(c2ccc(OCCCO)cc2)=N[C@]1(CCS(=O)(=O)c1ccccc1)C(=O)O	Calmodulin-1 (Homo sapiens)	yes (1)
O=C1NC(=O)C2C1C=CC(C(O)c1ccco1)N2Nc1ccc(Cl)cc1Cl (centres undefined)	Calmodulin-1 (Homo sapiens)	yes (1)
COC(=O)C1=CC(CCCO)=CC(c2ccc(CN3CCCC3)cc2)N(Cc2cccc(OC(F)(F)F)c2)C=C1C(=O)OC (centres undefined)	Calmodulin-1 (Homo sapiens)	yes (1)

Query block: Check this compound for composite z-score at or above 0.3: [N-]=[N+]=Nc1ccccc1[C@@H]1OC(c2ccc(OCCCO)cc2)=N[C@]1(Cc1ccccc1)C(=O)O
Result block: yes (1)

Query block: Check this compound for composite z-score at or above 0.3: C=CCC(OC(C)=O)[C@@H]1[C@@H](N(Cc2cc3ccccc3o2)C(=O)Cc2ccc(F)cc2)c2cc(OCCCO)ccc2N1C(=O)Cc1ccc2ccccc2c1 (some centres undefined)
Result block: no (0)

Query block: Check this compound for composite z-score at or above 0.3: O[C@@H](Cc1ccccc1)[C@@H](/C=C/C1CC1)N(CC#Cc1ccccc1)Cc1ccccc1Br
Result block: no (0)

Query block: Check this compound for composite z-score at or above 0.3: CC1=C2[C@@H](CCc3ccccc3)OB(O)C[C@@H]2[C@@H]2C(=O)N(Cc3ccccc3)C(=O)[C@@H]2C1
Result block: no (0)

Entry source: PubChem BioAssay
